tested on: HCT-116; test: NCI tumour cell line growth inhibition, 48 h
Active and inactive are the calls of the source. Cut-off read from the data, not from the text of the source: active = GI50 up to about 1.1 µM and inactive = higher.
Measured property: GI50

1. O=C1c2cccnc2-c2nccc3c2c1nc1cc(Br)ccc13 : 0.025 µM (active)
2. C=C(C)C1C/C=C(/C)CCCC2(CCC3=C(CC(C(=C)C)C/C=C(/C)CCC3)O2)C(=O)C1 (stereo not given) : 54.7 µM (inactive)
3. O=c1ncccn1[C@@H]1O[C@H](CO)[C@H](O)C1O (stereo not given in full) : > 70.8 µM (inactive)
4. Cc1c(C(=O)C(=O)c2ccccc2)c(C)c(C(=O)C(=O)c2ccccc2)c(C)c1C(=O)C(=O)c1ccccc1 : > 100 µM (inactive)

The recorded GI50 for entry OCCN(CCO)c1cccc(N(CCO)CCO)n1 equals > 100 µM (inactive)

###

system: RXF 393; assay: NCI tumour cell line growth inhibition, 48 h
Active and inactive are the calls of the source. Rule as the data show it: active = GI50 up to about 1.1 µM and inactive = higher.
Form entry, call: pick from 1.0 for active, 0.0 for inactive

Worked cases, answers included:
1) Cc1nc(SCC(N)=O)c2sc(=S)n(-c3ccccc3)c2n1 : 0.0
2) COC(=O)C(=O)c1cc2ccccc2n1S(=O)(=O)c1ccccc1 : 0.0
3) O=C(/C=C1\Nc2ccccc2N\C1=C\C(=O)c1ccc(Cl)cc1)c1ccccc1 : 0.0
4) CC1[C@@H]2CC=C3C4CCC5Cc6nc7c(nc6C[C@@]5(C)C4CC(=O)[C@]32CO[C@@]1(O)C(O)CC(C)(C)O)CC1CCC2C3=C[C@H]4O[C@@]5(O[C@@](C)(CO)C[C@@H]5O)C(C)[C@@]4(O)[C@]3(C)[C@@H](O)CC2[C@]1(C)C7 (stereo not given in full) : 1.0

Exam item: Short answer needed: outcome of this test for O=C1CC(=O)NC(NN2C(=O)CSC2C(=O)c2ccco2)=N1 (stereo not given) ?
Marked response: 0.0

###

system: UO-31; test: NCI tumour cell line growth inhibition, 48 h
The source made the active and inactive calls. No stated cut-off is given here; in the data, active = GI50 up to about 1.1 µM and inactive = higher.
Please provide measured GI50 for the entries that follow.

1. COC(=O)C1CC2C=CC1N(C(=O)OCc1ccccc1)C2 (configuration not stated) : > 100 µM (inactive)
2. Cc1ccc(C)c(N2C(=O)C(=O)C(c3nc4ccccc4o3)/C(=N/N)C2=O)c1 (configuration not stated) : > 100 µM (inactive)
3. C=C(C)[C@@H]1CC[C@]2(C(=O)O)CC[C@]3(C)[C@H](CCC4[C@@]5(C)CC[C@H](C(=O)/C=C/c6ccc(O)c(O)c6)C(C)(C)[C@@H]5CC[C@]43C)[C@@H]12 (some centres not stated) : 3.58 µM (inactive)
4. O=C(O)C12C=CC(C1)c1ccccc12 (configuration not stated) : > 100 µM (inactive)
5. COc1cc(C(=O)O)c([N+](=O)[O-])c(OC)c1OC : > 100 µM (inactive)

Record GI50 per entry; entries follow.
1. CC(C)(C)NCC(O)c1ccc(O)c(CO)n1 (configuration not stated)
2. C/C=C(/I)CBr

Marked response:
["> 100 µM (inactive)", "18.9 µM (inactive)"]

###

test system: SK-MEL-2; test: NCI tumour cell line growth inhibition, 48 h
Calls of active or inactive are those of the source. Rule as the data show it: active = GI50 up to about 1.1 µM and inactive = higher.
Measured property: GI50

// below: answered molecules
1. CN(C)CCCNc1nnc(NCCCN(C)C)c2c(=O)c3sccc3[nH]c12 : 18.4 µM (inactive)
2. Cc1ccc2c(O)cc(-c3ccc(Cl)s3)nc2n1 : 5.18 µM (inactive)
3. CSC1=N/C(=C\c2ccc(C)cc2)C(=O)N1 : > 100 µM (inactive)
4. CCOC(=O)C(C)(Cc1ccc(O)cn1)NC(=O)c1ccccc1 (stereo unspecified) : > 100 µM (inactive)
5. Cn1ncc2cc3c(Nc4ccc(Cl)cc4)cccc3nc21 : 22.6 µM (inactive)

Next molecule, GI50 to be filled in.
The recorded GI50 for entry Cc1cn(C2CC(n3cc(Cn4cc(F)c(=O)[nH]c4=O)nn3)C(CO)O2)c(=O)[nH]c1=O (stereo unspecified) equals > 100 µM (inactive)

Origin of measurements: ChEMBL document CHEMBL1201862
